# Study Target: UniProt:P29030
# Sequence (P29030 whole entry): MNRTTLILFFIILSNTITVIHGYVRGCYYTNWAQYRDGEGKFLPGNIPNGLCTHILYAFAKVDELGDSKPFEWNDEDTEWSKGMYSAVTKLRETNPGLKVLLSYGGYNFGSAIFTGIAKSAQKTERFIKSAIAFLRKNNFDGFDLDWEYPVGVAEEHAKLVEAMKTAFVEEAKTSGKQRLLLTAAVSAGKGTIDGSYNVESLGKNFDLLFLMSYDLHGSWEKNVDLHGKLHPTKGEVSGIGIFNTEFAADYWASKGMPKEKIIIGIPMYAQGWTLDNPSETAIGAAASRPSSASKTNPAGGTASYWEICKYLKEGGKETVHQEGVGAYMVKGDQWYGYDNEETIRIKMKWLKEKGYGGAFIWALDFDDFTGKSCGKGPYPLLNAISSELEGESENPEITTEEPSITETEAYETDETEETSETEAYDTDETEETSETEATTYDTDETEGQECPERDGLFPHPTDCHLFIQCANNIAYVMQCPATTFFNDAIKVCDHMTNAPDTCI
# Measurement Notes: Inhibition of Brugia malayi chitinase using 4-methylumbelliferyl-N-N'-N''-beta-chitotrioside as substrate assessed as release of 4-methylumbelliferone at 10 uM measured for 10 mins by fluorescence assay
Active and inactive are the calls of the source. No cut-off for these calls is given here.
Outcomes: active, inactive

| Compound | Classification |
| --- | --- |
| Cc1c2[nH]c3cc(OCc4ccc(Cl)cc4)ccc3c2cc[n+]1Cc1ccc(Cl)cc1.[Br-] | active |
| Cc1[nH]ccc2c1[nH]c1cc(=O)ccc12 [HARMOL] | inactive |
| COc1ccc2c(c1)[nH]c1c(C)nccc12 [HARMINE] | inactive |
| Cc1nccc2c3ccc(OCc4ccc(Cl)cc4)cc3n(Cc3ccc(Cl)cc3)c12 | inactive |
| COc1ccc2c(c1)[nH]c1c(C)[n+](CC3CC3)ccc12.[Br-] | inactive |
